# Tested on: Ba/F3-FGFR1-transfected cells
# ASSAY OVERVIEW: Ba/F3-FGFR1 (plus IL3) cellular proliferation assay, counterscreen with 10 ng/ml murine IL3
# Type: cell-based
# TEST SETTINGS: plus IL3 (10 ng/ml murine IL3, counterscreen); read-out: BAF3-FGFR1 (PLUS IL3) pIC50 (converted)
# Experimental: Ba/F3-FGFR1 (Minus IL3 or Plus IL3) (Cellular Proliferation Assay) In a 384 well plate, 100 nl of compound dilution in DMSO was sprayed before adding 50 μl cell culture medium (phenol red free RPMI-1640, 10% FBS, 2 mM L-Glutamine and 50 μg/ml Gentamycin) containing 20000 cells per well of Ba/F3-FGFR1-transfected cells. Cells were put in an incubator at 37° C. and 5% CO2. […]
TEST READOUT: IC50

Example compounds with recorded IC50:
COMPOUND	IC50
COc1cc(/N=c2\ccc3ncc(-c4cnn(C)c4)nc3n2CCCN2CCCC2=O)c(F)c(OC)c1	> 3.98 µM
COc1cc(OC)cc(N(CCO)c2ccc3ncc(-c4cnn(C)c4)nc3n2)c1	> 10 µM
COc1cc(OC)cc(N(CC(O)COC(C)C)c2ccc3ncc(-c4cnn(CC(O)COC(C)C)c4)nc3n2)c1 (stereo not shown)	> 10 µM

Name the recorded IC50 of the compound listed here: COc1cc(OC)c(F)c(/N=c2\ccc3ncc(-c4cnn(C)c4)nc3n2CC(O)COC(C)C)c1F (stereo not shown)
> 10 µM
